- assayExplanation: Specific activity of purified CHI, absorbance decrease at 384 nm, homoeriodictyol chalcone; note: unit not given here
- Format: biochemical
- runConditions: purified CHI in 50 mM PBS, 100 μM substrate, 25° C.
readoutLabel: Specific activity, Homoeriodctiol chalcone
Lab note: write the figure by itself, no unit.

molecule	valueReported
CHI5: Chalcone isomerase from Parasporobacterium paucivorans, access no. WP_073993359.1 (protein, Parasporobacterium paucivorans) GPEFQPMRSLIYVDCVKEEYRHRLQNWLYHYHVPDSISQFAPYVSKYCFYNALPTPPEGERFGTIRQQLTEHYWMVNPFTEHFKNKALTEYFPCDVLKWQGNIPDDDLEVNFEGDEARSKGGHNGCAPFIFAFLPLCWEEDFKGKERTIENGPNYRWNFVMKYPEGTSMEEGDKWFYEKMIPAFQEMPEVTRILTSKVIQSINGCAFHRVVEMWFDGPNAWYQAAVVKAKNIEKPSWASVDAFPYLQATFEFDGIFLTDYAASDNMSQYRGYLAMR	19.7

Proceed to the following item.
What value of Specific activity, Homoeriodctiol chalcone has been recorded for this entry: CHIera Mut13: Chalcone isomerase variant 13 from Eubacterium ramulus, genetically engineered (protein, listed as Eubacterium ramulus) MADFKFEPMRSLIYVDCVSEDYRPKLQRWIYKVHIPDSISKFEPYVTKYAFYPSFPIPPQGDRFGYARMQLTEHHWLVSPLDPRLEINAIAETFPMDVLVWQGQIPAAAHTDAQIDSDGDADDAARKSNNAEGNPFIFAFLPMWWEKDLKGKGRTIEDGANYRFNMTIGFPEGVDKAEGEKWLFEKVVPILQAAPECTRVLASAVKKDINGCVMDWVLEIWFENQSGWYKVMVDDMKALEKPSWAQQDAFPFLKPYHNVCSAAVADYTPSNNLANYRGYITMR
33.6
